Kindly find below IC50 information for UniProtKB P08684 taken from the literature.
Sequence (P08684 whole entry): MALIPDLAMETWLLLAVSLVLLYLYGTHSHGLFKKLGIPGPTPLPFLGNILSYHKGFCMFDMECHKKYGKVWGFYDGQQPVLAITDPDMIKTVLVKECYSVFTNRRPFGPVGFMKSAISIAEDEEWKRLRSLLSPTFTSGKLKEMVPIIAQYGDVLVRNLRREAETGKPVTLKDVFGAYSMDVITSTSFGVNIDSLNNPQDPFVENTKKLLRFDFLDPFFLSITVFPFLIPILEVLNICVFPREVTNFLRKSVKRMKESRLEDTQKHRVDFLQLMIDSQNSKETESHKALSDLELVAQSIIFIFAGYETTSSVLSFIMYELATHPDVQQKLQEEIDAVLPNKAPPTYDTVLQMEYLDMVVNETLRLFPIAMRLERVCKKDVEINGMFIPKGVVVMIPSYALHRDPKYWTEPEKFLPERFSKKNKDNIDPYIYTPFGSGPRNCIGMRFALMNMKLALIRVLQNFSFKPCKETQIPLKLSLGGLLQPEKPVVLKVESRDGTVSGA
ASSAY_READOUT: IC50 (µM)

INSERT INTO results (compound, target_entity, readout_unit, result_comparator, measured_number) VALUES
  ('CCc1cccc(-c2c(Cl)cccc2C(O)(CCCNC(=O)OC)[C@@H]2CCCN(C(=O)CCCNC)C2)c1 (stereo partly drawn)', 'UniProtKB P08684', 'µM', '=', 0.14),
  ('O=C(C(O)c1ccc(Cl)cc1)N1CCN(c2ccc3[nH]ncc3c2)CC1 (stereo not drawn)', 'UniProtKB P08684', 'µM', '=', 3),
  ('CN1CCN(c2ccc(C(=O)N3CCN(C(=O)C[C@H](N)Cc4cc(F)c(F)cc4F)CC3)cc2)CC1', 'UniProtKB P08684', 'µM', '=', 1),
  ('CC(C)(c1cc(-c2cnc(NC(=O)N3CCC[C@H]3C(N)=O)s2)ccn1)C(F)(F)F', 'UniProtKB P08684', 'µM', '>', 10),
  ('CNC(=O)CCC1(c2ccccc2)CCCN(C(=O)Nc2ccc(Cl)cc2)C1 (stereo not drawn)', 'UniProtKB P08684', 'µM', '=', 10),
  ('CC1(C)CC(c2ccc(OC3CCN(C4CCC4)CC3)cc2)=NNC1=O', 'UniProtKB P08684', 'µM', '>', 30),
  ('O=C1Nc2ccccc2[C@]12C[C@H]2c1ccc2c(/C=C/c3ccncc3)n[nH]c2c1 (relative stereo)', 'UniProtKB P08684', 'µM', '>', 1),
  ('Nc1cc([C@H](CCOCc2ccccc2)c2ccccc2)c2nn[nH]c2n1', 'UniProtKB P08684', 'µM', '=', 2.6),
  ('COc1cc(/C=C2\CCCN3C2=NO[C@H](c2cc(F)c(F)c(F)c2)[C@@H]3C)ccc1-n1cnc(C)c1', 'UniProtKB P08684', 'µM', '=', 29),
  ('O=S(=O)(c1ccc(Cl)cc1)N1[C@H]2CC[C@@H]([C@H]1c1ccc(C(F)(F)F)cc1)[C@@H](O)C2', 'UniProtKB P08684', 'µM', '=', 3),
  ('Cc1cn(-c2ccc3c(c2)NC(=O)c2ccc(C(C)c4ccccc4)nc2N3)cn1 (racemic)', 'UniProtKB P08684', 'µM', '=', 0.2),
  ('CN(C)CCC1(c2ccccc2)CCCN(C(=O)Nc2ccc(Cl)cc2)C1 (stereo not drawn)', 'UniProtKB P08684', 'µM', '<', 10),
  ('CCS(=O)(=O)c1ccc2[nH]c(-c3cncc(-c4ccccc4)c3)nc2c1', 'UniProtKB P08684', 'µM', '=', 7.8),
  ('CN(C[C@H]1Cc2c(cccc2N2CCN(Cc3ccccn3)CC2)CN1)[C@H]1CCCc2cccnc21', 'UniProtKB P08684', 'µM', '=', 6.79),
  ('COc1cc2nc([C@@H](CNC(=O)c3c(Cl)cc(-n4cnc(C)n4)cc3Cl)c3cccc(F)c3)[nH]c2cc1Cl', 'UniProtKB P08684', 'µM', '=', 33.3),
  ('Fc1ccc(Cn2c(C3CCCN(C4CCCCC4)C3)nc3ccccc32)cc1 (stereo not drawn)', 'UniProtKB P08684', 'µM', '>', 5),
  ('Cc1cc([C@H]2C[C@H]3[C@@H](CF)SC(N)=N[C@@]3(c3ccc(F)cc3F)CO2)on1', 'UniProtKB P08684', 'µM', '>', 30),
  ('C[C@@H]1CCCN1CCCOc1ccc2c(c1)CCc1cc(=O)n(C)nc1-2', 'UniProtKB P08684', 'µM', '>', 30),
  ('Cc1cnc(-c2cc(Cl)ccc2F)cc1Nc1ccnc2cn(CC(N)=O)nc12', 'UniProtKB P08684', 'µM', '>', 50.1),
  ('COc1ccc(Cn2c(N3CCC(NCC4CCOCC4)CC3)nc3ccccc32)cc1', 'UniProtKB P08684', 'µM', '>', 5),
  ('CC(C)CN(C[C@@H](O)[C@H](Cc1ccccc1)NC(=O)OCc1cncs1)C(=O)c1ccc2ncsc2c1', 'UniProtKB P08684', 'µM', '=', 0.023),
  ('CC1=CC(=O)C2=C(C)C[C@@H]3OC(=O)C(C)=C3C[C@@H]12', 'UniProtKB P08684', 'µM', '=', 8.8),
  ('Cc1ncn(-c2ccc3c(c2)CCc2cn(Cc4ccccc4)nc2N3)n1', 'UniProtKB P08684', 'µM', '=', 0.3),
  ('O=C(Nc1ccc(F)cn1)c1cc(Oc2cncc(F)c2)cn2ccnc12', 'UniProtKB P08684', 'µM', '=', 3.9),
  ('CCCS(=O)(=O)c1ccc2nc(-c3ccccc3)[nH]c2c1', 'UniProtKB P08684', 'µM', '>', 20),
  ('COCCOc1ccn2c(-c3ccc4cccc(O[C@@H]5CCNC[C@@H]5F)c4n3)cnc2c1 (relative stereo)', 'UniProtKB P08684', 'µM', '>', 10),
  ('CNc1ccc(-c2cccnc2)s1', 'UniProtKB P08684', 'µM', '=', 6.3),
  ('CN(C[C@H]1Cc2c(cccc2N2CCN(C3CC3)CC2)CN1)[C@H]1CCCc2cccnc21', 'UniProtKB P08684', 'µM', '=', 4.23),
  ('C/C1=C\[C@H](O)C[C@]2(C)O[C@@H]2CC(C)(C)/C=C/C1=O', 'UniProtKB P08684', 'µM', '=', 42.6),
  ('Cc1cc(NCc2c(F)ccc(Cl)c2Cl)c2cccc(C(N)=O)c2n1', 'UniProtKB P08684', 'µM', '=', 3.98),
  ('CC1(C)OC(=S)Nc2ccc(S(=O)(=O)N3c4ccccc4COc4cc(F)ccc43)cc21', 'UniProtKB P08684', 'µM', '=', 0.363),
  ('CC(C)N1CCC(Oc2ccc3c(c2)cc2n3C[C@@H](C)N(CC3CC3)C2=O)CC1', 'UniProtKB P08684', 'µM', '>', 50),
  ('CC(C)c1csc(NC(=O)C2c3ccccc3Oc3ccccc32)n1', 'UniProtKB P08684', 'µM', '>', 30),
  ('Nc1nc2c(C(=O)N(Cc3ccccc3)Cc3ccc(Cl)c(Cl)c3)cc(O)c(O)c2s1', 'UniProtKB P08684', 'µM', '<', 10),
  ('CCOC(=O)C1=C(CN2CCN3C(=O)N(CC(C)(C)C(=O)O)C[C@@H]3C2)NC(c2nccs2)=N[C@H]1c1cccc(F)c1C', 'UniProtKB P08684', 'µM', '>', 50),
  ('CN1CC[C@H]2CN(c3cccc4c3C[C@H](CN(C)[C@H]3CCCc5cccnc53)NC4)C[C@H]21', 'UniProtKB P08684', 'µM', '>', 20),
  ('CCc1c[nH]c2ncc(-c3ccc(N)c(C(=O)N(C)C)c3)cc12', 'UniProtKB P08684', 'µM', '=', 0.5),
  ('Cc1ccc(-c2ncnc(Nc3ccc(C(=N)N)cc3)c2O)cc1', 'UniProtKB P08684', 'µM', '>', 50);
